- Experiment: Rat pharmacokinetics (po and iv) and bioavailability
- Format: in vivo
- Conditions: in vivo, po, 10 mg/kg, 10 mpk (Table 11)
Measurement kind: AUC (ng·h/mL)

{"Compound": "COc1ccc(CCN(Cc2ccc(C#CC(=O)O)cc2)c2nc3cccc(F)c3s2)cc1 [Compound C0001, reference compound]", "AUC / ng·h/mL": 5830}

[I] COc1ccc(CCN(Cc2ccc(N3CC[C@H](C(=O)O)C3)cc2)c2nc3c(F)c(F)cc(F)c3s2)cc1
[II] COc1ccc(CCN(Cc2ccc(N3CC[C@H](C(=O)O)C3)cc2)c2nc3cccc(F)c3s2)cc1
Returns: the label, I or II , whose recorded AUC is the lower number. Answer by stating the label of the chosen item. II
(II: 5410 ng·h/mL, I: 9710 ng·h/mL)
